test: BHET released, HPLC; higher = more BHET released; extreme values may be limits of the assay; conditions: PET substrate: aFilm; 70 °C; pH 8.5; 24 h
Attribute: BHET released

{"columns": ["Query Sequence", "BHET released, mM"],
 "data": [
  ["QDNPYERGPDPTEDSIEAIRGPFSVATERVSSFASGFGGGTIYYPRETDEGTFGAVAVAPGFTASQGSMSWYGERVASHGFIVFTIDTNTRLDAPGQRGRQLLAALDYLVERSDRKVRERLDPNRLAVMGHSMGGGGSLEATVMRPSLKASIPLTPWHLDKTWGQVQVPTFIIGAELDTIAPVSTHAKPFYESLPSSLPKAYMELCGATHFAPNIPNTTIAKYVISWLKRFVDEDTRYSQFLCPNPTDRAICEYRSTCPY [Cut190*SS]", 0],
  ["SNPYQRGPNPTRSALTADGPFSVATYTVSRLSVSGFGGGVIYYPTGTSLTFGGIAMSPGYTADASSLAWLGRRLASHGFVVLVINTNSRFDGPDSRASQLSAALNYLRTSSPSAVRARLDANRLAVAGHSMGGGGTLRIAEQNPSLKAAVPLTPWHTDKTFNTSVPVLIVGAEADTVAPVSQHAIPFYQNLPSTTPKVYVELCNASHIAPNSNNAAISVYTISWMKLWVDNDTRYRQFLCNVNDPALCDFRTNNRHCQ [LCC-ICCG]", 0]
]}
